target: TAAR1 (Mus musculus (Mouse), UniProt Q923Y8); test: Radioligand binding assay on TAAR1 (membranes of stably transfected HEK293 cells); conditions: competition with [3H]-rac-2-(1,2,3,4-tetrahydro-1-naphthyl)-2-imidazoline, 4° C., 30 min
Sequence (Q923Y8 whole entry): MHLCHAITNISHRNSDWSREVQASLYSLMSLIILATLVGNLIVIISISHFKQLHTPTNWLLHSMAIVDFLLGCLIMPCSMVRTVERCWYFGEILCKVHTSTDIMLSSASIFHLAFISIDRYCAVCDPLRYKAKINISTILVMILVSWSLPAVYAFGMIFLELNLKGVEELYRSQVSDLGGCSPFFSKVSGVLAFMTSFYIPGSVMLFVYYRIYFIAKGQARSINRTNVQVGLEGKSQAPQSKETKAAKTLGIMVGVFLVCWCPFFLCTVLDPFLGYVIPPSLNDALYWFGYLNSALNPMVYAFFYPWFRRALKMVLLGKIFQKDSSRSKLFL
I'd appreciate it if you marked entries 1 (yes) when Ki is lower than 0.002 µM and 0 (no) when it is not.

**Q:** In plain terms, does CCC(CC[C@H]1COC(N)=N1)c1ccccc1 (stereo partly drawn) come in under 0.002 µM for Ki?
**A:** 0 (no)

**Q:** In plain terms, does `C[C@@H](C[C@H]1COC(N)=N1)Oc1ccc(F)c(Cl)c1` come in under 0.002 µM for Ki?
**A:** 0 (no)

**Q:** In plain terms, does `NC1=N[C@@H](CCOc2ccc(Cl)c(F)c2)CO1` come in under 0.002 µM for Ki?
**A:** 1 (yes)

**Q:** In plain terms, does CCC(CC[C@H]1COC(N)=N1)c1ccc(Cl)cc1 (stereo partly drawn) come in under 0.002 µM for Ki?
**A:** 1 (yes)

**Q:** In plain terms, does `CC[C@@H](C[C@H]1COC(N)=N1)Oc1ccc(F)c(F)c1` come in under 0.002 µM for Ki?
**A:** 1 (yes)

**Q:** In plain terms, does `NC1=N[C@@H](CCOc2ccc(-c3ccc(F)cc3)cc2)CO1` come in under 0.002 µM for Ki?
**A:** 1 (yes)

**Q:** In plain terms, does `C[C@H](C[C@H]1COC(N)=N1)Oc1cccc(Cl)c1` come in under 0.002 µM for Ki?
**A:** 0 (no)

**Q:** In plain terms, does `NC1=N[C@@H](CCOc2ccc(Cl)cc2F)CO1` come in under 0.002 µM for Ki?
**A:** 0 (no)

**Q:** In plain terms, does `NC1=N[C@@H](CCOc2ccc(F)cc2)CO1` come in under 0.002 µM for Ki?
**A:** 0 (no)

**Q:** In plain terms, does `NC1=N[C@@H](CCOc2ccc(Br)cc2)CO1` come in under 0.002 µM for Ki?
**A:** 0 (no)

**Q:** In plain terms, does `NC1=N[C@@H](CCOc2cccc(OCc3ccccc3)c2)CO1` come in under 0.002 µM for Ki?
**A:** 1 (yes)

**Q:** In plain terms, does `NC1=N[C@@H](CCOc2cc(F)cc(F)c2)CO1` come in under 0.002 µM for Ki?
**A:** 1 (yes)

**Q:** In plain terms, does `NC1=N[C@@H](CCSc2ccc(F)cc2)CO1` come in under 0.002 µM for Ki?
**A:** 1 (yes)

**Q:** In plain terms, does `NC1=N[C@@H](CCOc2ccc(F)cc2F)CO1` come in under 0.002 µM for Ki?
**A:** 1 (yes)

**Q:** In plain terms, does `CC[C@@H](C[C@H]1COC(N)=N1)Oc1ccc(Cl)cc1F` come in under 0.002 µM for Ki?
**A:** 0 (no)

**Q:** In plain terms, does `NC1=N[C@@H](CCOc2ccc(Cl)cc2)CO1` come in under 0.002 µM for Ki?
**A:** 1 (yes)

**Q:** In plain terms, does `NC1=N[C@@H](CCOc2ccc(F)cc2Cl)CO1` come in under 0.002 µM for Ki?
**A:** 0 (no)

**Q:** In plain terms, does `CC[C@@H](C[C@H]1COC(N)=N1)Oc1cc(F)c(F)cc1F` come in under 0.002 µM for Ki?
**A:** 0 (no)

**Q:** In plain terms, does `CC[C@@H](C[C@H]1COC(N)=N1)Oc1ccccc1` come in under 0.002 µM for Ki?
**A:** 1 (yes)

**Q:** In plain terms, does `C[Si](C)(CC[C@H]1COC(N)=N1)c1ccc(Cl)cc1` come in under 0.002 µM for Ki?
**A:** 0 (no)

**Q:** In plain terms, does `C[C@@H](C[C@H]1COC(N)=N1)Oc1ccc(Cl)c(F)c1` come in under 0.002 µM for Ki?
**A:** 0 (no)
